biological target: CYP2D6 (Homo sapiens, UniProt P10635); assay: Inhibition of human recombinant CYP2D6 at 5 uM assessed as blockade of O-demethylation of dextromethorphan in to dextrophan by nanoscale automated in-capillary assay; assay type: ADME; conditions: recombinant CYP2D6, probe dextromethorphan (O-demethylation to dextrorphan)
Sequence (P10635 whole entry): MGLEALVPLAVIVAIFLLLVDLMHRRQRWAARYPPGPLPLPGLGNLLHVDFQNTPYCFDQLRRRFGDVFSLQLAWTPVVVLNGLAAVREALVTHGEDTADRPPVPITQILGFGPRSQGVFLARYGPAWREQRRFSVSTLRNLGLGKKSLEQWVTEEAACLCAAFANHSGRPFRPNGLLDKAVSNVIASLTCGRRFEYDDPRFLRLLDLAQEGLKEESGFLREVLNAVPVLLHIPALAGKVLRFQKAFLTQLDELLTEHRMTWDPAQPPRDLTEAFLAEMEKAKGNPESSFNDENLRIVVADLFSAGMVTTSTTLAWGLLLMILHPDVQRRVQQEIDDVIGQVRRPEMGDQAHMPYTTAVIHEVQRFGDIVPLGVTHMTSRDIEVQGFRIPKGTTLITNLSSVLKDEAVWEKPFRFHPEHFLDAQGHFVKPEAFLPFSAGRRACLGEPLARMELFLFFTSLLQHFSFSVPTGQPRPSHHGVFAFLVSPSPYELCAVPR
TEST READOUT: inhibition at 5 µM (%)
Give bare numbers, in %.

| MOLECULE | inhibition at 5 µM / % |
| --- | --- |
| CNCCC(Oc1ccc(C(F)(F)F)cc1)c1ccccc1 (configuration not stated) | 20 |

Input: Item under review: COc1ccc(C(CN(C)C)C2(O)CCCCC2)cc1 (configuration not stated) . Reported inhibition at 5 µM?
Output: 0
